This collection of values is drawn from patent US20250269048A1.

Target: T1, human CD7 on cells (human, UniProt P09564 26-240)
T1 construct: whole, on cells; Target of the FACS and cell capture values and of the kill assays on CD7 single positive cells; also called CD7+ cells; Jurkat (CD33-/CD7+)
T1 sequence (looked up): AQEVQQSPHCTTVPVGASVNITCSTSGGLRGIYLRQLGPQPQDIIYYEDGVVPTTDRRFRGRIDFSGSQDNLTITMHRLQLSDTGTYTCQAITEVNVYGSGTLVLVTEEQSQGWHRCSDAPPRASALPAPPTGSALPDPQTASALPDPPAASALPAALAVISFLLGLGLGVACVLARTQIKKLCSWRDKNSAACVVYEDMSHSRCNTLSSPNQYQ
Assay: FACS; cells not named
parameter.measured: FACS binding
Respond numerically, and do not add a unit to the figure.

[Q] Suppose we examine the binder CD7-PP-3 CD7 binding arm (Fab, V domains shown, Heavy chain Arg57Lys) VH: QVQLQESGAELVKPGASVKLSCKASGYTFTSYWMHWVKQRPGQGLEWIGKINPSNGKTNYNEKFKSKATLTVDKSSSTAYMQLSSLTSEDSAVYYCARGGVYYDLYYYALDYWGQGTTVTVSS VL: DIELTQSPATLSVTPGDSVSLSCRASQSISNNLHWYQQKSHESPRLLIKSASQSISGIPSRFSGSGSGTDFTLSINSVETEDFGMYFCQQSNSWPYTFGGGTKLEIKR ; what FACS binding value has been reported?
[A] 13
